Field: pEC50. Provide a value for each of the compounds that follow.
Test system: recombinant NL-Rluc virus
Assay: Inhibition of HIV replication (NL-RLuc luciferase reporter virus, MT-2 cells)
Format: cell-based
Conditions: Human immunodeficiency virus 1, MT2, 120 h, read-out: Activity
pEC50: −log10 of the molar value.

Below: 5 compounds and their reported pEC50.
> print(dat)
                                   compound  measured.value
1  COc1cc(CNC(=O)c2cc3nc(C)c([C@H](OC(C)(C)C)C(=O)O)c(-c4cc(F)c5c(c4C)CCCO5)n3n2)ccc1F          > 7.00
2  Cc1cc(CNC(=O)c2nn3c(-c4cc(F)c5c(c4C)CCCO5)c([C@H](OC(C)(C)C)C(=O)O)c(C)nc3c2F)ccc1F          > 7.00
3  Cc1ccccc1CN(C)C(=O)c1cc2nc(C)c([C@H](OC(C)(C)C)C(=O)O)c(-c3cc(F)c4c(c3C)CCCO4)n2n1          > 7.00
4  Cc1nc2cc(C(=O)NCc3ccc(F)cc3N3CCCC3=O)nn2c(-c2cc(F)c3c(c2C)CCCO3)c1[C@H](OC(C)(C)C)C(=O)O          < 6.00
5  Cc1nc2cc(C(=O)NC3CCN(Cc4ccccc4)C3)nn2c(-c2cc(F)c3c(c2C)CCCO3)c1[C@H](OC(C)(C)C)C(=O)O (stereo partly drawn)    6.00 to 7.00

pEC50 recorded for this compound, `Cc1nc2cc(C(=O)NCc3ccco3)nn2c(-c2cc(F)c3c(c2C)CCCO3)c1[C@H](OC(C)(C)C)C(=O)O` , is 6.00 to 7.00

---

Provide the reported EC50 of each item.
Tested on: recombinant NL-Rluc virus
Experiment: Inhibition of HIV replication (NL-RLuc luciferase reporter virus, MT-2 cells)
Assay type: cell-based
Settings: Human immunodeficiency virus 1, MT2, 120 h, read-out: Activity

Past entries and their recorded results:
> print(dat)
                                    compound  measured.value
 1  Cc1cc(CNC(=O)c2cc3nc(C)c([C@H](OC(C)(C)C)C(=O)O)c(-c4ccc5c(c4Cl)NCCO5)n3n2)ccc1F  100 to 1000 nM
 2  Cc1nc2cc(C(=O)NCCC(C)(C)C)nn2c(C2=CCC(C)(C)CC2)c1[C@H](OC(C)(C)C)C(=O)O        < 100 nM
 3  Cc1nc2cc(C(=O)N3CCN(c4ccc(Cl)cc4)CC3)nn2c(-c2cc(F)c3c(c2C)CCCO3)c1[C@H](OC(C)(C)C)C(=O)O        < 100 nM
 4  Cc1nc2cc(C(=O)N(C)CCc3ccccn3)nn2c(-c2cc(F)c3c(c2C)CCCO3)c1[C@H](OC(C)(C)C)C(=O)O       > 1000 nM
 5  Cc1cc(CNC(=O)c2cc3nc(C)c([C@H](OC(C)(C)C)C(=O)O)c(-c4cc5c(cc4F)OCCN5)n3n2)ccc1F        < 100 nM
 6  Cc1ccc(CNC(=O)c2cc3nc(C)c([C@H](OC(C)(C)C)C(=O)O)c(-c4cc(F)c5c(c4C)CCCO5)n3n2)cc1F        < 100 nM
 7  Cc1ccc(NC(=O)c2cc3nc(C)c([C@H](OC(C)(C)C)C(=O)O)c(-c4cc(F)c5c(c4C)CCCO5)n3n2)cc1        < 100 nM
 8  Cc1nc2cc(C(=O)NCc3cccc(-c4ccccc4)c3)nn2c(-c2cc(F)c3c(c2C)CCCO3)c1[C@H](OC(C)(C)C)C(=O)O        < 100 nM
 9  CCCOCCNC(=O)c1cc2nc(C)c([C@H](OC(C)(C)C)C(=O)O)c(-c3cc(F)c4c(c3C)CCCO4)n2n1  100 to 1000 nM
10  Cc1cc(CNC(=O)c2cc3nc(C)c([C@H](OC(C)(C)C)C(=O)O)c(/C=C/CC(C)C)n3n2)ccc1F       > 1000 nM

Count: 3. Required value per item: EC50.
1. Cc1nc2cc(C(=O)N3CCN(CCN4CCOCC4)CC3)nn2c(-c2cc(F)c3c(c2C)CCCO3)c1[C@H](OC(C)(C)C)C(=O)O
2. Cc1nc2cc(C(=O)NCC(C)(C)C)nn2c(-c2cc(F)c3c(c2C)CCCO3)c1[C@H](OC(C)(C)C)C(=O)O
3. CCc1ccc(CN(C)C(=O)c2cc3nc(C)c([C@H](OC(C)(C)C)C(=O)O)c(-c4cc(F)c5c(c4C)CCCO5)n3n2)cc1

1: > 1000 nM; 2: 100 to 1000 nM; 3: < 100 nM
